Target: wildtype LRRK2 (Homo sapiens, UniProt Q5S007)
Construct: expressed in transfected cells; host or cells: HEK293 (ATCC CRL-1573), transient transfection, ubiquitin promoter
Sequence (Q5S007 whole entry): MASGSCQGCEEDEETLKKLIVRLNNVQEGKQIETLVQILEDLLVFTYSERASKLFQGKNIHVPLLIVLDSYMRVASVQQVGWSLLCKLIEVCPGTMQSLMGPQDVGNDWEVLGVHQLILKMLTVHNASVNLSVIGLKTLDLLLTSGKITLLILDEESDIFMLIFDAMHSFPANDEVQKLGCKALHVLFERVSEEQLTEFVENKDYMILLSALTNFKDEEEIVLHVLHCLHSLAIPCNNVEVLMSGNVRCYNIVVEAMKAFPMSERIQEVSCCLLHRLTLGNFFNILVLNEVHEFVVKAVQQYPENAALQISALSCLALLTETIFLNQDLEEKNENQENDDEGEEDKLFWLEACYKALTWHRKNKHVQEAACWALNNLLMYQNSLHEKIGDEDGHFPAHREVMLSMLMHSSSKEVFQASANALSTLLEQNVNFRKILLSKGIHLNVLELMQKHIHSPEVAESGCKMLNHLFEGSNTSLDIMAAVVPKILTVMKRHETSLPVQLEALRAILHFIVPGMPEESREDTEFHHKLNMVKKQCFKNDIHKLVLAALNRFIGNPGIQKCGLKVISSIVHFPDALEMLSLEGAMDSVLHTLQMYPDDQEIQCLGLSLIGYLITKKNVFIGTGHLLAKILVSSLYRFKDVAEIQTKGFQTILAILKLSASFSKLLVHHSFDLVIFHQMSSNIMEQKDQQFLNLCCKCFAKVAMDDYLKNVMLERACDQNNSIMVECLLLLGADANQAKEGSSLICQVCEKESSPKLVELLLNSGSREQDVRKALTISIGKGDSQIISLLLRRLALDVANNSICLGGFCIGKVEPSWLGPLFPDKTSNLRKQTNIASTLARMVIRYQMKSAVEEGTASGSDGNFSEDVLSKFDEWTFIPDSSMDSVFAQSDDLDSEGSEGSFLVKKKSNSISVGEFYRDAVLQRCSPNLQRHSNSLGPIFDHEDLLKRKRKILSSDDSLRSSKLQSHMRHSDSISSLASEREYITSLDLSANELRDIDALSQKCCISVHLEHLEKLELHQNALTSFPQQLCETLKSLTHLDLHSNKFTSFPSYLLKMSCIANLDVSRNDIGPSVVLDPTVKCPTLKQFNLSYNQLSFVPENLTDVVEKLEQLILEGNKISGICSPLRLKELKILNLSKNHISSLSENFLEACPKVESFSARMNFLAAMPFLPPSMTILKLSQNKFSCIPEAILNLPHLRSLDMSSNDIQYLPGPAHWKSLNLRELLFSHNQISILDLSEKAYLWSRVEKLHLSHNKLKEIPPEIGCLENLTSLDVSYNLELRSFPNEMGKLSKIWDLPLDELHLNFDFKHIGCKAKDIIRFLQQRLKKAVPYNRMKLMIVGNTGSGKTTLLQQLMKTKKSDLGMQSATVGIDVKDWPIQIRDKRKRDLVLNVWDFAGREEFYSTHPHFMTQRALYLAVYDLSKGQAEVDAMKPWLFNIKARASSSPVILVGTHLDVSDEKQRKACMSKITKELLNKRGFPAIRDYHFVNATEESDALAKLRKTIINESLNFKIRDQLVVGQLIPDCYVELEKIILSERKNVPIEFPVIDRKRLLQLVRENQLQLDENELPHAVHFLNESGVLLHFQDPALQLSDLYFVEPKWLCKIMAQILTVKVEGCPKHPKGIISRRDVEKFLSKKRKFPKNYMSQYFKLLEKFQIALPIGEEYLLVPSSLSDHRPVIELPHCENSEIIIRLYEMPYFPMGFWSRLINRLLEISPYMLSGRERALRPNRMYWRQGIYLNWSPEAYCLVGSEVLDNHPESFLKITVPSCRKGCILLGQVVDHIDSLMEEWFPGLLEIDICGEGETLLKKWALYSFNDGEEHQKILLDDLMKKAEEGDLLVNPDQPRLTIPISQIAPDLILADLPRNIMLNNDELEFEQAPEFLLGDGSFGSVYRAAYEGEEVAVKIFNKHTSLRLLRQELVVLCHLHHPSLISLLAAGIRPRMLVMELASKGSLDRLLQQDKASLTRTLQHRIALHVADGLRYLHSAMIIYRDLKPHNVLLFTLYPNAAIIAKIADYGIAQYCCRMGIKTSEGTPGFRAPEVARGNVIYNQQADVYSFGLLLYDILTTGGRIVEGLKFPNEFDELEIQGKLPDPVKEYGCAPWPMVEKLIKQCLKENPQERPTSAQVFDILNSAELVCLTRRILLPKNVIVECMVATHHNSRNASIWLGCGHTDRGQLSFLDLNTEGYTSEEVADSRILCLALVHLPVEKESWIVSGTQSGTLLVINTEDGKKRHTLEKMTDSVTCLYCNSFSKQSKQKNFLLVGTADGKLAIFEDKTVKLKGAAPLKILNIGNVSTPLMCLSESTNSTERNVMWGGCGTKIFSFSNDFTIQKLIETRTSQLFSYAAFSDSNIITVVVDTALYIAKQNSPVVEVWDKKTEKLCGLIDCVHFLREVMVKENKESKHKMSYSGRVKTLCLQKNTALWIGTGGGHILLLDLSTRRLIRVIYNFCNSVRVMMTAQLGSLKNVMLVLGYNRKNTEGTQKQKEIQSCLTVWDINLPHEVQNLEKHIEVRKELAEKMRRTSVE
Assay: LRRK2 degradation assay, wildtype LRRK2-HiBit expressed from plasmid in HEK293 cells
Assay type: cell-based
Details: HEK293 cells transfected with HiBit-tagged wildtype LRRK2, 24 hours compound incubation; read-out: *WT DC50
Recorded DC50 values for a group of molecules are listed next.

Solved cases below.
molecule	measure_name	result
CC(C)Oc1ccc2[nH]nc(-c3cc(N4CCN(CCN5CCC(CN6CCN(c7ccc8c(c7)C(=O)N(C7CCC(=O)NC7=O)C8=O)CC6)CC5)[C@@H](C)C4)ncn3)c2c1 (stereo partly drawn)	DC50	< 10 nM
C[C@H]1CN(c2cc(-c3n[nH]c4ccc(OC(C)(C)C)cc34)ncn2)CCN1CCOCCOCCOCCOc1ccc2c(c1)C(=O)N(C1CCC(=O)NC1=O)C2=O (stereo partly drawn)	DC50	≥ 100 nM

Please examine the following record next.
Lookup: Fill in the blank: the reported DC50 of CC1(Oc2ccc3[nH]nc(-c4cc(N5CCN(CCN6CCC(CN7CCN(c8ccc9c(c8)C(=O)N(C8CCC(=O)NC8=O)C9=O)CC7)CC6)CC5)ncn4)c3c2)CC1 (stereo not drawn) is ____.
Found: < 10 nM

----------
Target: G2019S LRRK2 (Homo sapiens, UniProt Q5S007, G2019S)
Construct: expressed in transfected cells; host or cells: HEK293 (ATCC CRL-1573), transient transfection, ubiquitin promoter
Sequence (Q5S007 whole entry G2019S): as the sequence (Q5S007 whole entry) above, with G2019S counted along it
Test: LRRK2 degradation assay, G2019S LRRK2-HiBit expressed from plasmid in HEK293 cells
Format: cell-based
Conditions: HEK293 cells transfected with HiBit-tagged G2019S LRRK2, 24 hours compound incubation
measure_name: DC50

Lookup: Fill in the blank: the reported DC50 of CC(C)Oc1ccc2[nH]nc(-c3cc(N4CCN(CCOCCN5CCN(c6ccc7c(c6)C(=O)N(C6CCC(=O)NC6=O)C7=O)CC5)[C@@H](C)C4)ncn3)c2c1 (some centres unmarked) [compound 22] is ____.
Found: 10 to 50 nM

Lookup: Fill in the blank: the reported DC50 of CC(C)Oc1ccc2[nH]nc(-c3cc(N4CCN(CCOCCOCCOCCOc5ccc6c(c5)C(=O)N(C5CCC(=O)NC5=O)C6=O)[C@@H](C)C4)ncn3)c2c1 (some centres unmarked) [compound 9] is ____.
Found: ≥ 100 nM

Lookup: Fill in the blank: the reported DC50 of CC(C)Oc1ccc2[nH]nc(-c3cc(N4CCN(CCOCCC#CCN5CCN(c6ccc7c(c6)C(=O)N(C6CCC(=O)NC6=O)C7=O)CC5)[C@@H](C)C4)ncn3)c2c1 (some centres unmarked) [compound 34] is ____.
Found: ≥ 100 nM

Lookup: Fill in the blank: the reported DC50 of C[C@@H]1CN(c2cc(-c3n[nH]c4ccc(OC5(C)CC5)cc34)ncn2)C[C@H](C)N1CCOCCOCCOCCOc1ccc2c(c1)C(=O)N(C1CCC(=O)NC1=O)C2=O (some centres unmarked) [compound 7] is ____.
Found: < 10 nM

Lookup: Fill in the blank: the reported DC50 of C[C@H]1CN(c2cc(-c3n[nH]c4ccc(OC5(C)CC5)cc34)ncn2)CCN1CCOCCOCCOCCOc1ccc2c(c1)C(=O)N(C1(C)CCC(=O)NC1=O)C2=O (some centres unmarked) [compound 19] is ____.
Found: 10 to 50 nM

Lookup: Fill in the blank: the reported DC50 of CC(C)Oc1ccc2[nH]nc(-c3cc(N4CCO[C@H](CCN5CCN(CC6CCN(c7ccc8c(c7)C(=O)N(C7CCC(=O)NC7=O)C8=O)CC6)CC5)C4)ncn3)c2c1 (some centres unmarked) [compound 50] is ____.
Found: < 10 nM

----------
Target: wildtype LRRK2 (Homo sapiens, UniProt Q5S007)
Construct: expressed in transfected cells; host or cells: HEK293 (ATCC CRL-1573), transient transfection, ubiquitin promoter
Test: LRRK2 degradation assay, wildtype LRRK2-HiBit expressed from plasmid in HEK293 cells
Format: cell-based
Details: HEK293 cells transfected with HiBit-tagged wildtype LRRK2, 24 hours compound incubation; read-out: *WT DC50
measure_name: DC50

Solved cases below.
molecule	system_name	result
CC1(Oc2ccc3[nH]nc(-c4cc(N5CCO[C@H](CCOCCOCCOCCOc6ccc7c(c6)C(=O)N(C6CCC(=O)NC6=O)C7=O)C5)ncn4)c3c2)CC1 (stereo in doubt)	wildtype LRRK2 (Homo sapiens, UniProt Q5S007)	10 to 50 nM
C[C@H]1CN(c2cc(-c3n[nH]c4ccc(OC5(C)CC5)cc34)ncn2)CCN1CCOCCN1CCN(c2ccc3c(c2)C(=O)N(C2CCC(=O)NC2=O)C3=O)CC1 (some centres unmarked)	wildtype LRRK2 (Homo sapiens, UniProt Q5S007)	< 10 nM

Lookup: Fill in the blank: the reported DC50 of CC(C)Oc1ccc2[nH]nc(-c3cc(N4CCN(CC(F)(F)C5CCN(CC6CCN(c7ccc8c(c7)C(=O)N(C7CCC(=O)NC7=O)C8=O)CC6)CC5)CC4)ncn3)c2c1 (centres unmarked) is ____.
Found: 10 to 50 nM

Lookup: Fill in the blank: the reported DC50 of CC(C)Oc1ccc2[nH]nc(-c3cc(N4CCO[C@H](CN5CCN(CC6CCN(c7ccc8c(c7)C(=O)N(C7CCC(=O)NC7=O)C8=O)CC6)CC5)C4)ncn3)c2c1 (some centres unmarked) is ____.
Found: < 10 nM

Lookup: Fill in the blank: the reported DC50 of CC1(Oc2ccc3[nH]nc(-c4cc(N5CCO[C@@H](CCOCCOCCOCCOc6ccc7c(c6)C(=O)N(C6CCC(=O)NC6=O)C7=O)C5)ncn4)c3c2)CC1 (some centres unmarked) is ____.
Found: < 10 nM

----------
Target: G2019S LRRK2 (Homo sapiens, UniProt Q5S007, G2019S)
Construct: expressed in transfected cells; host or cells: HEK293 (ATCC CRL-1573), transient transfection, ubiquitin promoter
Test: LRRK2 degradation assay, G2019S LRRK2-HiBit expressed from plasmid in HEK293 cells
Assay type: cell-based
Conditions: HEK293 cells transfected with HiBit-tagged G2019S LRRK2, 24 hours compound incubation
Description: The assay measures the degradation of wildtype and G2019S LRRK2 tagged with a HiBit tag on the C-terminus of the protein that was expressed from a mammalian expression vector, driven by the ubiquitin promoter in HEK293 cells. Each compound dose-response was repeated on two separate days, on three separate plates each day. […] While the transfection mixes were incubating, HEK293 cells (acquired from ATCC; ATCC CRL-1573) were harvested with trypsin. […] The cells were mixed well and counted. […]
measure_name: Dmax

Solved cases below.
compound	Dmax
C[C@H]1CN(c2cc(-c3n[nH]c4ccc(OC5(C)CC5)cc34)ncn2)CCN1CCN1CCC(CN2CCN(c3ccc4c(c3)C(=O)N(C3CCC(=O)NC3=O)C4=O)CC2)CC1 (stereo partly shown) [compound 29]	≥ 70%
CC(C)Oc1ccc2[nH]nc(-c3cc(N4CCN(CCOCCC#CCN5CCN(c6ccc7c(c6)C(=O)N(C6CCC(=O)NC6=O)C7=O)CC5)[C@@H](C)C4)ncn3)c2c1 (stereo partly shown) [compound 34]	50 to 70%
CC1(Oc2ccc3[nH]nc(-c4cc(N5CCN(CCN6CCC(CN7CCN(c8ccc9c(c8)C(=O)N(C8CCC(=O)NC8=O)C9=O)CC7)CC6)CC5)ncn4)c3c2)CC1 (stereo not shown) [compound 28]	≥ 70%
CC(C)Oc1ccc2[nH]nc(-c3cc(N4CCN(CCN5CC(C6CCN(c7ccc8c(c7)C(=O)N(C7CCC(=O)NC7=O)C8=O)CC6)C5)CC4)ncn3)c2c1 (stereo not shown) [compound 44]	50 to 70%
CC(C)Oc1ccc2[nH]nc(-c3ccnc(N4CCN(CCOCCOCCOCCOc5ccc6c(c5)C(=O)N(C5CCC(=O)NC5=O)C6=O)[C@@H](C)C4)c3)c2c1 (stereo partly shown) [compound 11]	50 to 70%

Please examine the following record next.
Lookup: Fill in the blank: the reported Dmax of CC(C)Oc1ccc2[nH]nc(-c3cc(N4CCN(CCCN(C)CCCN5CCN(c6ccc7c(c6)C(=O)N(C6CCC(=O)NC6=O)C7=O)CC5)[C@@H](C)C4)ncn3)c2c1 (stereo partly shown) [compound 38] is ____.
Found: ≥ 70%

----------
Recorded DC50 values for a group of molecules are listed next.
Molecular target: wildtype LRRK2 (Homo sapiens, UniProt Q5S007)
Construct: expressed in transfected cells; host or cells: HEK293 (ATCC CRL-1573), transient transfection, ubiquitin promoter
Assay: LRRK2 degradation assay, wildtype LRRK2-HiBit expressed from plasmid in HEK293 cells
Type: cell-based
Settings: HEK293 cells transfected with HiBit-tagged wildtype LRRK2, 24 hours compound incubation; read-out: *WT DC50

molecule	DC50
C[C@H]1CN(c2cc(-c3n[nH]c4ccc(OC5(C)CC5)cc34)ncn2)CCN1CCOCCOCCOCCOc1ccc2c(c1)C(=O)N(C1(C)CCC(=O)NC1=O)C2=O (some centres unmarked) [compound 19]	≥ 100 nM
CC(C)Oc1ccc2[nH]nc(-c3cc(N4CCN(CCN5CC(C6CCN(c7ccc8c(c7)C(=O)N(C7CCC(=O)NC7=O)C8=O)CC6)C5)CC4)ncn3)c2c1 (centres unmarked) [compound 44]	10 to 50 nM
CC(C)Oc1ccc2[nH]nc(-c3cc(N4CCN(CCCCN5CCN(c6ccc7c(c6)C(=O)N(C6CCC(=O)NC6=O)C7=O)CC5)[C@@H](C)C4)ncn3)c2c1 (some centres unmarked) [compound 23]	< 10 nM
CC(C)Oc1ccc2[nH]nc(-c3cc(N4CCN(CCN5CCN(CC6CCN(c7ccc8c(c7)C(=O)N(C7CCC(=O)NC7=O)C8=O)CC6)CC5)[C@@H](C)C4)ncn3)c2c1 (some centres unmarked) [compound 26]	10 to 50 nM
CC(C)Oc1ccc2[nH]nc(-c3cc(N4CCN(CCN5CCC(CN6CCN(c7ccc8c(c7)CN(C7CCC(=O)NC7=O)C8=O)CC6)CC5)[C@@H](C)C4)ncn3)c2c1 (some centres unmarked) [compound 31]	< 10 nM

Lookup: Fill in the blank: the reported DC50 of CC(C)Oc1ccc2[nH]nc(-c3cc(N4CCO[C@H](CCN5CCN(CC6CCN(c7ccc8c(c7)C(=O)N(C7CCC(=O)NC7=O)C8=O)CC6)CC5)C4)ncn3)c2c1 (some centres unmarked) [compound 50] is ____.
Found: < 10 nM

Lookup: Fill in the blank: the reported DC50 of CC(C)Oc1ccc2[nH]nc(-c3cc(N4CCN(CCOCCN5CCN(c6ccc7c(c6)C(=O)N(C6CCC(=O)NC6=O)C7=O)CC5)[C@@H](C)C4)ncn3)c2c1 (some centres unmarked) [compound 22] is ____.
Found: 10 to 50 nM

Lookup: Fill in the blank: the reported DC50 of CC(C)Oc1ccc2[nH]nc(-c3ccnc(N4CCN(CCOCCOCCOCCOc5ccc6c(c5)C(=O)N(C5CCC(=O)NC5=O)C6=O)[C@@H](C)C4)c3)c2c1 (some centres unmarked) [compound 11] is ____.
Found: ≥ 100 nM

Lookup: Fill in the blank: the reported DC50 of CC(C)Oc1ccc2[nH]nc(-c3cc(N4CCO[C@@H](CCN5CCN(CC6CCN(c7ccc8c(c7)C(=O)N(C7CCC(=O)NC7=O)C8=O)CC6)CC5)C4)ncn3)c2c1 (some centres unmarked) [compound 49] is ____.
Found: < 10 nM

Lookup: Fill in the blank: the reported DC50 of C[C@H]1CN(c2cc(-c3n[nH]c4ccc(OC5(C)CC5)cc34)ncn2)CCN1CCOCCOc1ccc2c(c1)C(=O)N(C1CCC(=O)NC1=O)C2=O (some centres unmarked) [compound 2] is ____.
Found: < 10 nM

Lookup: Fill in the blank: the reported DC50 of CC(C)Oc1cc2c(-c3cc(N4CCN(CCOCCOCCOCCOc5ccc6c(c5)C(=O)N(C5CCC(=O)NC5=O)C6=O)[C@@H](C)C4)ncn3)n[nH]c2cc1F (some centres unmarked) [compound 15] is ____.
Found: ≥ 100 nM
